Reference for the values: the supplement of paper PMC8728848

Collected glycan array binding signal (z-score) values appear next to each entry.
# Assay target: Neu5Ac(a2-3)Gal(b1-4)[Fuc(a1-3)]GlcNAc(b1-6)[Gal(b1-3)]GalNAc
# Assay summary: glycan array binding signal (z-score within array); higher = stronger binding
# Condition summary: glycan notation: IUPAC condensed, linker removed
About 410 targets per protein were measured; listed, in parts, are those with the strongest signals and a random draw of the rest.
Respond numerically, and do not add a unit to the figure.

{"Binder": "CpGal16 (Clavelina picta) (protein) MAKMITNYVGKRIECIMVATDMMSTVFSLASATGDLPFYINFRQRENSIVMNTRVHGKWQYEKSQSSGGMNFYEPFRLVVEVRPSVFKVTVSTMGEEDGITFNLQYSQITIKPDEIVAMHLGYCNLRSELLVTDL", "glycan array binding signal (z-score)": 0.134}

The record that follows has no glycan array binding signal (z-score) shown yet.
Item under review: DC-ASGPR-short (Homo sapiens) (protein) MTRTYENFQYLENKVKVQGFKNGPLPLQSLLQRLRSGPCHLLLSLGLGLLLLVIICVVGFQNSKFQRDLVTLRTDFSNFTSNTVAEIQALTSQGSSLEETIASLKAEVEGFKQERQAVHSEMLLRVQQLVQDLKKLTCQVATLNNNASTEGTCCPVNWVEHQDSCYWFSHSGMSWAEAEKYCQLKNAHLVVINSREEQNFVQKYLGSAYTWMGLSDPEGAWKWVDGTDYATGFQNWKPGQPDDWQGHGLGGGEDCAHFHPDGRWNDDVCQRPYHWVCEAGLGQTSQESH . Reported glycan array binding signal (z-score)?
-0.285
